- System: HCT-116
- assay: Antiproliferative activity against MTAP deleted human HCT-116 cells assessed as inhibition of cell viability by luminescence based cell titer-glo assay
- Format: functional
Attribute: pIC50
Hey, just a heads up that pIC50 is the negative log base 10 of the concentration in molar.

Solved entries:
Request: Specify reported pIC50 for the molecule shown: CN(C(=O)c1ccc2nc(N)c3c(c2c1)COC3)[C@@H]1CCN(c2ccc3cnn(C)c3c2)C1
Result: 6.50

Request: Specify reported pIC50 for the molecule shown: Cc1cc2nc(N)c3c(c2cc1C(=O)N(C)[C@@H]1CCN(c2ccc(C#N)cc2)C1)COC3
Result: 8.15

Request: Specify reported pIC50 for the molecule shown: CN(C(=O)c1ccc2nc(N)c3c(c2c1)COC3)[C@@H]1CCN(c2ccccc2)C1
Result: 5.99

Let us examine a further case.
Request: Specify reported pIC50 for the molecule shown: CN(C(=O)c1ccc2nc(N)c3c(c2c1)COC3)[C@@H]1CCN(c2ccc(C3CC3)cc2)C1
Result: 5.80
